experiment: Apparent permeability from basolateral to apical side in human Caco2 cells at 10 uM after 60 mins by LC-MS/MS analysis; assay type: ADME, cell-based; conditions: caco-2, 1 h
property.name: Papp (nm/s)
Provide the reading as a plain figure in nm/s.

In plain terms, C/C(=N\NC(=N)N)c1sc(-c2ccc(C#CC3CC3)cc2)nc1C has a documented Papp of 3.5

Record CNC(=C[N+](=O)[O-])NCCSCc1ccc(CN(C)C)o1 , field Papp: 17.1

###

system: HRT-18 cell line; assay: Cytotoxicity against human HRT18 cells assessed as reduction in cell viability up to 32 ug/ml after 2 hrs by MTS assay; type: cell-based; settings: hrt-18, 2 h
property.name: Activity

Check out these entries, answers already filled in.
1) C/C(=N\NC(=N)N)c1sc(-c2ccc(C#CC(C)(C)C)cc2)nc1C ... Non-Toxic
2) C/C(=N\NC(=N)N)c1sc(-c2ccc(C#CC3CCCCC3)cc2)nc1C ... Non-Toxic
3) C/C(=N\NC(=N)N)c1sc(-c2ccc(C#Cc3ccccc3)cc2)nc1C ... Non-Toxic
4) CCCC#Cc1ccc(-c2nc(C)c(/C(C)=N/NC(=N)N)s2)cc1 ... Non-Toxic
5) CCCCCCC#Cc1ccc(-c2nc(C)c(/C(C)=N/NC(=N)N)s2)cc1 ... Non-Toxic

The recorded Activity for CCCCCC#Cc1ccc(-c2nc(C)c(/C(C)=N/NC(=N)N)s2)cc1 is Non-Toxic

Entry C/C(=N\NC(=N)N)c1sc(-c2ccc(C#CC3CCCC3)cc2)nc1C , Activity reported as Non-Toxic

Looking up C/C(=N\NC1=NCCN1)c1sc(-c2ccc(C#CC(C)(C)C)cc2)nc1C , I see its Activity listed as Non-Toxic

The reported Activity of the molecule C/C(=N\NC(=N)N)c1sc(-c2ccc(C#CC3CC3)cc2)nc1C was Non-Toxic
